Biological target: BRAF G466V (Homo sapiens, UniProt P15056, G466V)
Construct: Horizon Discovery (HCT-116 BRAF−/− cells); host or cells: HCT-116 BRAF−/− cells, clone 8, lentiviral transduction
Sequence (P15056 whole entry G466V): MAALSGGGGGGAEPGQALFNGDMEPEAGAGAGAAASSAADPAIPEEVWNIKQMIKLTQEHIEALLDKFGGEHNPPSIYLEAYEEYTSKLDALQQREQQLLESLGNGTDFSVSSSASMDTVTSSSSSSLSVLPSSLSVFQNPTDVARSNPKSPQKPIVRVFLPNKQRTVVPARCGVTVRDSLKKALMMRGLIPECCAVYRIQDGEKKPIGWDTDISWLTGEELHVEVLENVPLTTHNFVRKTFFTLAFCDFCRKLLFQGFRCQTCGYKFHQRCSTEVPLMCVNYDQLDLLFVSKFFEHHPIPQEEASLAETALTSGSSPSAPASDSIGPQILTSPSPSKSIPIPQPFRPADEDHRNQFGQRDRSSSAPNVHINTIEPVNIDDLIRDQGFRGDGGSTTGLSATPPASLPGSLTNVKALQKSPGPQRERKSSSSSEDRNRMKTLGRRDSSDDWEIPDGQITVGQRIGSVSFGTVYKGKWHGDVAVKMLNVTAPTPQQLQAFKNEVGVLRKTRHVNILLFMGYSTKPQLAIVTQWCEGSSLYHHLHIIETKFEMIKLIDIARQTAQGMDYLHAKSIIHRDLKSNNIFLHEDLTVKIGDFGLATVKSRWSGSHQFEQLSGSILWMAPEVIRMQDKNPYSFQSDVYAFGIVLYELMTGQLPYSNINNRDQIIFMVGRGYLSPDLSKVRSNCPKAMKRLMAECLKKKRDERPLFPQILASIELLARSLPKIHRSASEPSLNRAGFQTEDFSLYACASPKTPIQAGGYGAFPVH
Assay: BRAF HiBiT degradation assay, C-terminal HiBiT-tagged BRAF G466V overexpressed in HCT-116 BRAF−/− cells (clone 8), Nano-Glo HiBiT Lytic assay
Type: cell-based
Conditions: BRAF G466V (Class 3), HCT-116 BRAF−/− cells; observed Dmax relative to DMSO control
Recorded Dmax, one value per entry.

Example entries begin here.
## Input Provide measured Dmax value, entry: CCCS(=O)(=O)Nc1cccc(-c2nc(C3CCC4(CC3)CCN(C[C@H]3CC[C@H](Oc5ccc(C6CCC(=O)NC6=O)cn5)CC3)CC4)sc2-c2ccnc(N)n2)c1F (mixture of isomers) [Compound 257]
## Output < 30%

## Input Determine from records and report Dmax for O=C1CCC(c2ccc(N3CCC(CN4CCN(c5ccc(-n6cc(-c7cc(C(F)F)cc(NS(=O)(=O)N8CCCC8)c7F)c(-c7ccncc7)n6)cc5)CC4)CC3)nc2)C(=O)N1 (racemic) [Compound 350]
## Output > 70%

## Input Item O=C1CC[C@H](c2ccc(N3CCC(CN4CCN(c5ccc(-n6cc(-c7cc(Cl)cc(NS(=O)(=O)N8CC[C@@H](F)C8)c7F)c(-c7ccncc7)n6)cc5)CC4)CC3)cc2)C(=O)N1 [Compound 291] : provide Dmax
## Output > 70%

## Input Provide only the value of recorded Dmax for O=C1CC[C@H](c2ccc(N3CCC(CN4CCN(c5ccc(-n6cc(-c7cc(F)cc(NS(=O)(=O)N8CC[C@@H](F)C8)c7F)c(-c7ccncc7)n6)nc5)CC4)CC3)cc2)C(=O)N1 [Compound 302]
## Output > 70%

More entries:
## Input Give Dmax for O=C1CCN(c2ccc(N3CCC(CN4CCN(c5ccc(-n6cc(-c7cc(Cl)cc(NS(=O)(=O)N8CC[C@@H](F)C8)c7F)c(-c7ccncc7)n6)cc5F)CC4)CC3)cc2)C(=O)N1 [Compound 365]
## Output 30 to 70%

## Input Item C[C@@H]1CN(c2ccc(-n3cc(-c4cc(Cl)cc(NS(=O)(=O)N5CCCC5)c4F)c(-c4ccncc4)n3)nc2)CCN1CC1CCN(c2ccc(N3CCC(=O)NC3=O)cc2)CC1 [Compound 324] : provide Dmax
## Output 30 to 70%

## Input Return value of Dmax for input O=C1CC[C@H](c2ccc(N3CCC(CN4CCN(c5cnc(-n6cc(-c7cc(Cl)cc(NS(=O)(=O)N8CCCC8)c7F)c(-c7ccncc7)n6)nc5)CC4)CC3)cc2)C(=O)N1 [Compound 360] , no commentary.
## Output > 70%

## Input Identify measured Dmax associated with O=C1CCC(c2ccc(N3CCC(CN4CCN(c5ccc(-n6cc(-c7cc(Cl)cc(NS(=O)(=O)N8CCCC8)c7F)c(-c7ccncc7)n6)c(F)c5)CC4)CC3)nc2)C(=O)N1 (racemic) [Compound 266]
## Output > 70%

## Input Entry O=C1CCN(c2ccc(N3CCC(CN4CCN(c5ccc(-n6cc(-c7cc(Cl)cc(NS(=O)(=O)N8CC(F)C8)c7F)c(-c7ccncc7)n6)c(F)c5)CC4)CC3)nc2)C(=O)N1 [Compound 369] needs its Dmax filled in; supply it.
## Output 30 to 70%

## Input Give the measured Dmax for C[C@@H]1CN(c2ccc(-n3cc(-c4cc(Cl)cc(NS(=O)(=O)N5CC[C@@H](F)C5)c4F)c(-c4ccncc4)n3)nc2)CCN1CC1CCN(c2ccc([C@H]3CCC(=O)NC3=O)cc2)CC1 [Compound 320]
## Output > 70%

----------
We begin with a simple list: items and their reported DC50.
Molecular target: BRAF V600E (Homo sapiens, UniProt P15056, V600E)
Construct: endogenous C-terminal HiBiT fusion tag on BRAF V600E allele; endogenous in cells; host or cells: A375 clone 1F10 (CRISPR-Cas9 knock-in of the HiBiT tag; parental A375 from ATCC)
Sequence (P15056 whole entry V600E, the tested form may be a part): as the sequence (P15056 whole entry G466V) above, with V466G, V600E counted along it
Experiment: BRAF HiBiT degradation assay, C-terminal HiBiT-tagged BRAF V600E A375 cells (clone 1F10), Nano-Glo HiBiT Lytic assay
Format: cell-based
Details: A375 (BRAF V600E, Class 1); DC50 at 50% degradation
Method: An A375 cell line expressing a homozygous V600E mutation was purchased from ATCC (Manassas, VA, USA). […] HiBiT signal was measured by a Nano-Glo HiBiT Lytic assay (Promega cat. no. N3050). […] Luminesce units (LU) were read on an EnVision plate reader 2105 (Perkin Elmer). Percent protein remaining and viability remaining per sample were calculated as follows: […]

Before answering, review these 4 worked examples.
## Input Return DC50 for the following compound: O=C1CCC(c2ccc(N3CCC(CN4CCN(c5ccc(-n6cc(-c7cc(Cl)cc(NS(=O)(=O)N8CCCC8)c7F)c(-c7ccncc7)n6)c(F)c5)CC4)CC3)nc2)C(=O)N1 (racemic)
## Output < 10 nM

## Input Determine its reported DC50: C[C@@H]1CN(c2ccc(-n3cc(-c4cc(Cl)cc(NS(=O)(=O)N5CC[C@@H](F)C5)c4F)c(-c4ccncc4)n3)cc2)CCN1CC1CCN(c2ccc(C3CCC(=O)NC3=O)cn2)CC1 (mixture of isomers)
## Output < 10 nM

## Input Query DC50 for "O=C1CC[C@@H](c2ccc(N3CCC(CN4CCN(c5ccc(-n6cc(-c7cc(Cl)cc(NS(=O)(=O)N8CCCC8)c7F)c(-c7ccncc7)n6)cc5)CC4)CC3)cc2F)C(=O)N1"
## Output 10 to 50 nM

## Input Entry "O=C1CC[C@H](c2ccc(N3CCC(CN4CCN(c5ccc(-n6cc(-c7cc(Cl)cc(NS(=O)(=O)N8CC(F)C8)c7F)c(-c7ccncc7)n6)cc5)CC4)CC3)cc2)C(=O)N1" needs its DC50 filled in; supply it.
## Output < 10 nM

Next:
## Input Tell me measured DC50 for "O=C1CCN(c2ccc(N3CCC(CN4CCN(c5ccc(-n6cc(-c7cc(Cl)cc(NS(=O)(=O)N8CC[C@@H](F)C8)c7F)c(-c7ccncc7)n6)nc5)CC4)CC3)cc2)C(=O)N1" please.
## Output < 10 nM

## Input State its DC50: "O=C1CCN(c2ccc(N3CCC(CN4CCN(c5ccc(-n6cc(-c7cc(Cl)cc(NS(=O)(=O)N8CCCC8)c7F)c(-c7ccncc7)n6)cc5F)CC4)CC3)cc2)C(=O)N1"
## Output < 10 nM

## Input Look up DC50 of "O=C1CC[C@H](c2ccc(N3CCC(CN4CCN(c5ccc(-n6cc(-c7cc(Cl)cc(NS(=O)(=O)N8CC[C@@H](F)C8)c7F)c(-c7ccncc7)n6)cc5)CC4)CC3)cc2)C(=O)N1" and report it.
## Output < 10 nM

## Input Please look at this compound and report its DC50: C[C@@H]1CN(c2ccc(-n3cc(-c4cc(Cl)cc(NS(=O)(=O)N5CC[C@@H](F)C5)c4F)c(-c4ccncc4)n3)nc2)CCN1CC1CCN(c2ccc(C3CCC(=O)NC3=O)cn2)CC1 (mixture of isomers)
## Output < 10 nM

## Input Give me measured DC50, please, for this compound: "CCN(C)S(=O)(=O)Nc1cccc(-c2cn(-c3ccc(N4CCN(CC5CCN(c6ccc([C@H]7CCC(=O)NC7=O)cn6)CC5)CC4)cc3F)nc2-c2ccncc2)c1F"
## Output 50 to 500 nM

## Input Give me measured DC50, please, for this compound: "C[C@@H]1CN(c2ccc(-n3cc(-c4cc(Cl)cc(NS(=O)(=O)N5CCCC5)c4F)c(-c4ccncc4)n3)nc2)CCN1CC1CCN(c2ccc([C@H]3CCC(=O)NC3=O)cn2)CC1"
## Output < 10 nM

## Input Please give measured DC50 of the following entry: "O=C1CCN(c2ccc(N3CCC(CN4CCN(c5ccc(-n6cc(-c7cc(Cl)cc(NS(=O)(=O)N8CCCC8)c7F)c(-c7ccncc7)n6)nc5)CC4)CC3)cc2)C(=O)N1"
## Output < 10 nM

----------
Target: BRAF D594G (Homo sapiens, UniProt P15056, D594G)
Construct: Horizon Discovery (HCT-116 BRAF−/− cells); host or cells: HCT-116 BRAF−/− cells, clone 63, lentiviral transduction
Sequence (P15056 whole entry D594G): as the sequence (P15056 whole entry G466V) above, with V466G, D594G counted along it
Assay: BRAF HiBiT degradation assay, C-terminal HiBiT-tagged BRAF D594G overexpressed in HCT-116 BRAF−/− cells (clone 63), Nano-Glo HiBiT Lytic assay
Format: cell-based
Conditions: BRAF D594G; DC50 at 50%: fitted conc. at Y=50
Listing of entries alongside the reported DC50.

## Input Find the measured DC50 of CCCS(=O)(=O)Nc1cccc(-c2nc(C(C)(C)C)sc2-c2ccnc(NC3CC4(C3)CN(CC3CCN(c5ccc(C(=O)NC6CCC(=O)NC6=O)cc5)CC3)C4)n2)c1F (racemic) [Compound 170] and report it.
## Output > 500 nM

## Input Answer with the recorded DC50 of CCCS(=O)(=O)Nc1cccc(-c2nc(C(C)(C)C)sc2-c2ccnc(Nc3cnn(C4CCN(C(=O)[C@H]5CC[C@H](Oc6ccc(C7CCC(=O)NC7=O)cc6)CC5)CC4)c3)n2)c1F (mixture of isomers) [Compound 110] only.
## Output > 500 nM

## Input State, in one line, measured DC50 of CCCS(=O)(=O)Nc1cccc(-c2cn(-c3ccc(N4CCN(CC5CCN(c6ccc(C7CCC(=O)NC7=O)cc6)CC5)CC4)cc3)nc2-c2ccncc2)c1F (racemic) [Compound 21]
## Output > 500 nM

## Input Find the measured DC50 of CCCS(=O)(=O)Nc1cccc(-c2cn(C3CCN(C(=O)C4(C)CCN(C(=O)C5CCN(c6ccc(C7CCC(=O)NC7=O)cn6)CC5)CC4)CC3)nc2-c2ccncc2)c1F (racemic) [Compound 8] and report it.
## Output > 500 nM

Here's the next entry for you.
## Input Dear colleague, please send me the reported DC50 for CCN(C)S(=O)(=O)Nc1cccc(-c2nc(C(C)(C)C)sc2-c2ccnc(Nc3ccc(N4CCN(CC5CCN(c6ccc([C@H]7CCC(=O)NC7=O)cn6)CC5)CC4)cn3)n2)c1F [Compound 29] when you can.
## Output < 10 nM
